Target: human HSL (Homo sapiens, UniProt Q05469)
Construct: generate a full length human HSL ORF with a 3′-His6 tag
Experiment: Human Hormone-Sensitive Lipase (HSL) enzyme inhibition assay (colorimetric, DMPT substrate)
Details: human full length HSL-His6, 2,3-dimercapto-1-propanol tributyrate substrate, 37° C. 20 minutes, absorbance at 405 nm; read-out: HSL hum IC50
Binary label based on IC50 with cut-off 60 nM: below gives YES, not below gives NO.

Would you please look over these solved cases?
> print(dat)
                                   compound  label
1  CC(C)(C)c1ccc(N2CC[C@]3(CC[C@@](O)(CN4CCCC4=O)CC3)C2=O)cc1    YES
2  COC[C@]1(O)CC[C@]2(CCN(c3ccc(OC(C)C)nc3)C2=O)CC1     NO
3  COC[C@]1(O)CC[C@]2(CCN(c3ccc(OCC(F)(F)F)cc3)C2=O)CC1     NO

// query Does the reported IC50 of CC(C)Oc1ccc(N2CC[C@]3(CC[C@@](O)(c4cnnn4C)CC3)C2=O)cc1 stay below 60 nM?
// result NO

// query Continue with CC(C)[C@]1(O)CC[C@@]2(CCN(c3ccc([C@@H](O)C(F)(F)F)cc3)C2=O)CC1
// result NO

// query Continue with CC(C)COC[C@]1(O)CC[C@@]2(CCN(c3ccc(OCC(F)(F)F)cc3)C2=O)CC1
// result NO

// query Continue with C=CC[C@]1(O)CC[C@]2(CCN(c3ccc(O[C@H](C)C(F)(F)F)cc3)C2=O)CC1
// result YES

// query Continue with CCc1ccc(CCN2CC[C@]3(CC[C@@](O)(COC)CC3)C2=O)cc1
// result NO

// query Continue with CCCOC[C@]1(O)CC[C@]2(CCN(c3ccc(O[C@@H](C)C(F)(F)F)cc3)C2=O)CC1
// result YES

// query Continue with CCc1ccc(N2CC[C@]3(CC[C@@H](OC(=O)Nc4ccccc4)CC3)C2=O)cc1
// result NO

// query Continue with CCC[C@]1(O)CC[C@]2(CCN(c3ccc(CC(F)(F)F)cc3)C2=O)CC1
// result YES

---

Biological target: human HSL (Homo sapiens, UniProt Q05469)
Construct: generate a full length human HSL ORF with a 3′-His6 tag
Experiment: Human Hormone-Sensitive Lipase (HSL) enzyme inhibition assay (colorimetric, DMPT substrate)
Conditions: human full length HSL-His6, 2,3-dimercapto-1-propanol tributyrate substrate, 37° C. 20 minutes, absorbance at 405 nm; read-out: HSL hum IC50
Binary label based on IC50 with cut-off 30 nM: below gives y, not below gives n.

> print(dat)
                               given.smiles  label
1  CC(C)Oc1ccc(N2CC[C@]3(CC[C@@](O)(C4CCCC4)CC3)C2=O)cc1      y
2  CCOC(=O)C[C@]1(O)CC[C@]2(CCN(c3ccc(OC(F)(F)F)cc3)C2=O)CC1      y
3  CCCNC(=O)O[C@H]1CC[C@@]2(CCN(c3ccc(OC(F)(F)F)cc3)C2=O)CC1      n

// query Does the reported IC50 of COCCc1ccc(N2CC[C@]3(CC[C@@](O)(C(F)(F)F)CC3)C2=O)cc1 stay below 30 nM?
// result n

// query Continue with O=C1N(c2ccc(C3CC(F)(F)C3)cc2)CC[C@]12CC[C@](O)(C(F)(F)F)CC2
// result n

// query Continue with CCc1ccc(N2CC[C@]3(CC[C@H](OCc4ccccc4)CC3)C2=O)cc1
// result n

// query Continue with O=C1N(c2ccc(OCC(F)(F)F)cc2)CC[C@]12CC[C@](O)(COc1ccccc1)CC2
// result n

---

Target: human HSL (Homo sapiens, UniProt Q05469)
Construct: generate a full length human HSL ORF with a 3′-His6 tag
Sequence (Q05469 1-1076): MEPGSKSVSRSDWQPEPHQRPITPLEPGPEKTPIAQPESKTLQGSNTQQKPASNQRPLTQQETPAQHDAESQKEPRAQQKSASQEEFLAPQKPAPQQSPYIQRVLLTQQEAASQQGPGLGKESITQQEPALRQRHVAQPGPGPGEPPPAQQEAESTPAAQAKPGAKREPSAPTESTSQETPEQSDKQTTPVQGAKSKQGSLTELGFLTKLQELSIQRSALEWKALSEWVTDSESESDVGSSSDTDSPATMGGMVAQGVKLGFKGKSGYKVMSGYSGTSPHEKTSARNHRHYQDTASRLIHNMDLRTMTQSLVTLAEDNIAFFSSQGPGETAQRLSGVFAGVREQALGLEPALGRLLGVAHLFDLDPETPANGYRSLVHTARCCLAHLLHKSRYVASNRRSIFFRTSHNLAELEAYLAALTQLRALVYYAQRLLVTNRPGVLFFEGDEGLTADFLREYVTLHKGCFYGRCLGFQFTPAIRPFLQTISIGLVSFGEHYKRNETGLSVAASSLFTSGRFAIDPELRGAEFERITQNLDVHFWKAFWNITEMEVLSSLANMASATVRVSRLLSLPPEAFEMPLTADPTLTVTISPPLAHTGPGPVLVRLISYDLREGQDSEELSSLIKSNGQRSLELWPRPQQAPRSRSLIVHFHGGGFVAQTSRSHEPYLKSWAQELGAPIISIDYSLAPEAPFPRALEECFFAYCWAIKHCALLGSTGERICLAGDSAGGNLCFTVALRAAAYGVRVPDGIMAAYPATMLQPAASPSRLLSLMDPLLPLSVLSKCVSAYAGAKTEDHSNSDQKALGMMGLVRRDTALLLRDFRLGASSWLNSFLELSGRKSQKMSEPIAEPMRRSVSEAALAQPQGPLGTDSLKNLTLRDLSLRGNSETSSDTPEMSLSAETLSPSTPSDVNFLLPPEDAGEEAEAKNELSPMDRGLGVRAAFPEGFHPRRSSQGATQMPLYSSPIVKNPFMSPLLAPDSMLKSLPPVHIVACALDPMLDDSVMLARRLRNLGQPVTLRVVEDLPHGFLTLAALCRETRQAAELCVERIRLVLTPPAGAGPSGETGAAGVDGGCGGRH
Assay: Human Hormone-Sensitive Lipase (HSL) enzyme inhibition assay (colorimetric, DMPT substrate)
Settings: human full length HSL-His6, 2,3-dimercapto-1-propanol tributyrate substrate, 37° C. 20 minutes, absorbance at 405 nm; read-out: HSL hum IC50
Binary label based on IC50 with cut-off 30 nM: below gives t, not below gives f.

Would you please look over these solved cases?
> print(dat)
                                   molecule  label
1  CC[C@]1(O)CC[C@]2(CCN(c3ccc(OS(=O)(=O)C4CC4)cc3)C2=O)CC1 [Example 183]      f
2  CC(C)c1ccc(N2CC[C@]3(CC[C@H](O)CC3)C2=O)cc1 [Example 38]      f
3  O=C(NCCO)O[C@H]1CC[C@@]2(CCN(c3ccc(OC(F)(F)F)cc3)C2=O)CC1 [Example 27]      f

// query Does the reported IC50 of O=C1N(c2ccc(OCC(F)(F)F)cc2)CC[C@]12CC[C@@](O)(COc1cccc(F)c1)CC2 [Example 262] stay below 30 nM?
// result f

// query Continue with CO[C@H](c1ccc(N2CC[C@]3(CC[C@@](O)(C(C)C)CC3)C2=O)cc1)C(F)(F)F [Example 137]
// result t

// query Continue with CCC[C@]1(O)CC[C@]2(CCN(c3ccc(O[C@H](C)C(F)(F)F)cc3)C2=O)CC1 [Example 164b]
// result t

// query Continue with CC(C)(C)SC[C@]1(O)CC[C@]2(CCN(c3ccc(OCC(F)(F)F)cc3)C2=O)CC1 [Example 319]
// result t

// query Continue with CCC(O)[C@H]1CC[C@@]2(CCN(c3ccc(O[C@H](C)C(F)(F)F)cc3)C2=O)CC1 (stereo partly shown) [Example 365]
// result f

// query Continue with CCO[C@H](c1ccc(N2CC[C@]3(CC[C@@](O)(COC)CC3)C2=O)cc1)C(F)(F)F [Example 140]
// result f

// query Continue with CCOC[C@]1(O)CC[C@]2(CCN(c3ccc(O[C@H](C)C(F)(F)F)cc3)C2=O)CC1 [Example 253]
// result t

// query Continue with COCCC[C@]1(O)CC[C@@]2(CCN(c3ccc(OC(F)(F)F)cc3)C2=O)CC1 [Example 91]
// result f

// query Continue with O=C1N(c2ccc(OCCC(F)(F)F)cc2)CC[C@]12CC[C@@H](O)CC2 [Example 98]
// result f

// query Continue with C[C@]1(O)CC[C@@]2(CCN(c3ccc(OC(F)(F)F)cc3)C2=O)CC1 [Example 58]
// result f

// query Continue with CC(C)(C)c1ccc(N2CC[C@]3(CC[C@@](O)(CN4CCCCC4=O)CC3)C2=O)cc1 [Example 351]
// result t

// query Continue with CCCC[C@]1(O)CC[C@@]2(CCN(c3ccc(OC(F)(F)F)cc3)C2=O)CC1 [Example 67]
// result f
